pIC50: −log10 of the molar value. Where a SMILES comes first, the peptide text is derived from it. [ ]: non-standard residue; d: D form. The star is where a group is joined. NMeTyr(3-tBu) = CN[C@@H](Cc1ccc(O)c(C(C)(C)C)c1)C(=O)O; Tyr(3-tBu) = CC(C)(C)c1cc(C[C@H](N)C(=O)O)ccc1O; NMePhe(4-F) = CN[C@@H](Cc1ccc(F)cc1)C(=O)O; Phe(4-F) = N[C@@H](Cc1ccc(F)cc1)C(=O)O; NMeNva = CCC[C@H](NC)C(=O)O; NMeV = CN[C@H](C(=O)O)C(C)C; NHiPr = CC(C)N*
Reported values: pIC50 for motilin receptor (Oryctolagus cuniculus), one per item.
measure: pIC50

Consider the worked cases shown below.
CC(C)NC(=O)[C@H](Cc1ccc(O)c(C(C)(C)C)c1)NC(=O)[C@H](C(C)C)N(C)C(=O)[C@@H](N)Cc1ccc(F)cc1 [Example 120, Phe(4-F)-N-Me-Val-Tyr(3-tBu)-NH-i-Pr] (H-[Phe(4-F)]-[NMeV]-[Tyr(3-tBu)]-NHiPr) ... 9.57
CCNC(=O)[C@H](Cc1ccc(O)c(C(C)(C)C)c1)NC(=O)[C@H](C(C)C)N(C)C(=O)[C@H](Cc1ccc(F)cc1)NC [Example 102, N-Me-Phe(4-F)-N-Me-Val-Tyr(3-tBu)-NHEt] (H-[NMePhe(4-F)]-[NMeV]-[Tyr(3-tBu)]-NHEt) ... 9.51

P = CCNC(=O)[C@H](Cc1ccc(O)c(C(C)(C)C)c1)NC(=O)[C@H](C(C)C)N(C)C(=O)[C@@H](N)Cc1ccc(F)cc1 [Example 101, Phe(4-F)-N-Me-Val-Tyr(3-tBu)-NHEt] (H-[Phe(4-F)]-[NMeV]-[Tyr(3-tBu)]-NHEt)
Q = CCC[C@@H](C(=O)N(C)[C@@H](Cc1ccc(O)c(C(C)(C)C)c1)C(N)=O)N(C)C(=O)[C@@H](N)Cc1ccc(F)cc1 [Example 140, Phe(4-F)-N-Me-Nva-N-Me-Tyr(3-tBu)-NH2] (H-[Phe(4-F)]-[NMeNva]-[NMeTyr(3-tBu)]-NH2)
R = CC(C)[C@@H](C(=O)N[C@@H](Cc1ccc(O)c(C(C)(C)C)c1)C(=O)NCO)N(C)C(=O)[C@@H](N)Cc1ccc(F)cc1
S = CC(C)[C@@H](C(=O)N[C@H](CNC(N)=O)Cc1ccc(O)c(C(C)(C)C)c1)N(C)C(=O)[C@@H](N)Cc1ccc(F)cc1
Query: Highest pIC50 first, then in falling order down to the smallest. Would you mind listing the labels in the order asked for?
Response: P, R, S, Q

====

experimental.target: UniProt G1T803
pIC50: −log10 of the molar value. Where a SMILES comes first, the peptide text is derived from it. [ ]: non-standard residue; d: D form. NMeTyr(3-tBu) = CN[C@@H](Cc1ccc(O)c(C(C)(C)C)c1)C(=O)O; Phe(4-F) = N[C@@H](Cc1ccc(F)cc1)C(=O)O; NMePhg = CN[C@H](C(=O)O)c1ccccc1; NMeV = CN[C@H](C(=O)O)C(C)C
measure: pIC50

P = CC(C)[C@@H](C(=O)N(C)[C@@H](Cc1ccc(O)c(C(C)(C)C)c1)C(N)=O)N(C)C(=O)[C@@H](N)Cc1ccc(F)cc1 [Example 1, Phe(4-F)-N-Me-Val-N-Me-Tyr(3-tBu)-NH2] (H-[Phe(4-F)]-[NMeV]-[NMeTyr(3-tBu)]-NH2)
Q = CN(C(=O)[C@@H](N)Cc1ccc(F)cc1)[C@H](C(=O)N(C)[C@@H](Cc1ccc(O)c(C(C)(C)C)c1)C(N)=O)c1ccccc1 [Example 166, Phe(4-F)-N-Me-Phg-N-Me-Tyr(3-tBu)-NH2] (H-[Phe(4-F)]-[NMePhg]-[NMeTyr(3-tBu)]-NH2)
Query: I'm curious whether P or Q has the smaller pIC50 number. Which is it? When you have decided, please share the label of that item.
Response: Q
(Q: 8.74, P: 9.05)

====

Data export: IC50 values recorded with UniProtKB G1T803.
Where a SMILES comes first, the peptide text is derived from it. [ ]: non-standard residue; d: D form. The star is where a group is joined. Tyr(3-tBu) = CC(C)(C)c1cc(C[C@H](N)C(=O)O)ccc1O; Phe(4-F) = N[C@@H](Cc1ccc(F)cc1)C(=O)O; NMeV = CN[C@H](C(=O)O)C(C)C; NHtBu = CC(C)(C)N*
measure: IC50 (pM)

P = CCNC(=O)[C@H](Cc1ccc(O)c(C(C)(C)C)c1)N(CC)C(=O)[C@H](C(C)C)N(C)C(=O)[C@@H](N)Cc1ccc(F)cc1
Q = CC(C)[C@@H](C(=O)N[C@@H](Cc1ccc(O)c(C(C)(C)C)c1)C(=O)NC(C)(C)C)N(C)C(=O)[C@@H](N)Cc1ccc(F)cc1 [Example 63, Phe(4-F)-N-Me-Val-Tyr(3-tBu)-NHtBu] (H-[Phe(4-F)]-[NMeV]-[Tyr(3-tBu)]-NHtBu)
Query: Param pair: P , Q . Output: the one whose IC50 is numerically greater. Answer format: the label of the selected item.
Response: Q
(Q: 620 pM, P: 390 pM)

====

Where a SMILES comes first, the peptide text is derived from it. [ ]: non-standard residue; d: D form. ξ: configuration not given here. NMeTyr(3-tBu) = CN[C@@H](Cc1ccc(O)c(C(C)(C)C)c1)C(=O)O; ξNMeTyr(3-tBu) = CNC(Cc1ccc(O)c(C(C)(C)C)c1)C(=O)O; Tyr(3-tBu) = CC(C)(C)c1cc(C[C@H](N)C(=O)O)ccc1O; NMePhe(4-F) = CN[C@@H](Cc1ccc(F)cc1)C(=O)O; Phe(4-F) = N[C@@H](Cc1ccc(F)cc1)C(=O)O; ξPhe(4-CN) = N#Cc1ccc(CC(N)C(=O)O)cc1; NMeIle(3ξ) = CCC(C)[C@H](NC)C(=O)O; NMeV = CN[C@H](C(=O)O)C(C)C
Here's a batch of compounds along with measured IC50 for motilin receptor (Oryctolagus cuniculus, UniProt G1T803).
measure: IC50 (nM)

Below are worked cases with known answers.
CCC(C)[C@@H](C(=O)N(C)[C@@H](Cc1ccc(O)c(C(C)(C)C)c1)C(N)=O)N(C)C(=O)[C@@H](N)Cc1ccc(F)cc1 (stereo partly shown) [Example 142, Phe(4-F)-N-Me-Ile-N-Me-Tyr(3-tBu)-NH2] (H-[Phe(4-F)]-[NMeIle(3ξ)]-[NMeTyr(3-tBu)]-NH2) ... 0.62
CC(C)[C@@H](C(=O)N(C)C(Cc1ccc(O)c(C(C)(C)C)c1)C(N)=O)N(C)C(=O)C(N)Cc1ccc(C#N)cc1 (stereo partly shown) [Example 182, Phe(4-CN)-N-Me-Val-N-Me-Tyr(3-tBu)-NH2] (H-[ξPhe(4-CN)]-[NMeV]-[ξNMeTyr(3-tBu)]-NH2) ... 2.3

P = CN[C@@H](Cc1ccc(F)cc1)C(=O)N(C)[C@H](C(=O)N(C)[C@@H](Cc1ccc(O)c(C(C)(C)C)c1)C(N)=O)C(C)C [Example 34] (H-[NMePhe(4-F)]-[NMeV]-[NMeTyr(3-tBu)]-NH2)
Q = CNC(=O)[C@H](Cc1ccc(O)c(C(C)(C)C)c1)NC(=O)[C@H](C(C)C)N(C)C(=O)[C@H](Cc1ccc(F)cc1)NC [Example 32, N-Me-Phe(4-F)-N-Me-Val-Tyr(3-tBu)-NHMe] (H-[NMePhe(4-F)]-[NMeV]-[Tyr(3-tBu)]-NHMe)
Query: // which entry reports the smaller IC50, P or Q ? Answer with the label corresponding to your selection.
Response: Q

====

experimental.target: motilin receptor (Oryctolagus cuniculus, UniProt G1T803)
Sequence (G1T803 1-400): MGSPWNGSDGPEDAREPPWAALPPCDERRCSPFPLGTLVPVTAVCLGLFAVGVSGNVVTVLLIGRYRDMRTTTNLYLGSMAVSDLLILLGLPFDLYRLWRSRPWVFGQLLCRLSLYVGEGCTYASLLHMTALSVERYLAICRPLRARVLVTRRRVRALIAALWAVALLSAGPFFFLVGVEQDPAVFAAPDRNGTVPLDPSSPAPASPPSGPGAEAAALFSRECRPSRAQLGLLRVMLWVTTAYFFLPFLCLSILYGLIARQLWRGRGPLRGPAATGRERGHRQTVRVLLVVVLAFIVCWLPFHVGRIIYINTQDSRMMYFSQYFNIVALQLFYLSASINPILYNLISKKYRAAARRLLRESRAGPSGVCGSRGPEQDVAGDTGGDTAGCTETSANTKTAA
Where a SMILES comes first, the peptide text is derived from it. [ ]: non-standard residue; d: D form. NMeTyr(3-tBu) = CN[C@@H](Cc1ccc(O)c(C(C)(C)C)c1)C(=O)O; Phe(3,4-F2) = N[C@@H](Cc1ccc(F)c(F)c1)C(=O)O; NMeV = CN[C@H](C(=O)O)C(C)C
measure: IC50 (nM)

CCN(C(=O)[C@H](C(C)C)N(C)C(=O)[C@H](Cc1ccc(F)cc1)NC)[C@@H](Cc1ccc(O)c(C(C)(C)C)c1)C(=O)NC ... 1.9
CCN[C@@H](Cc1ccc(F)cc1)C(=O)N(C)[C@H](C(=O)N[C@@H](Cc1ccc(O)c(C(C)(C)C)c1)C(=O)NC)C(C)C ... 1.7
CC(C)[C@@H](C(=O)N(C)[C@@H](Cc1ccc(O)c(C(C)(C)C)c1)C(N)=O)N(C)C(=O)[C@@H](N)Cc1ccc(F)c(F)c1 [Example 3, Phe(3,4-F2)-N-Me-Val-N-Me-Tyr(3-tBu)-NH2] (H-[Phe(3,4-F2)]-[NMeV]-[NMeTyr(3-tBu)]-NH2) ... 1.5
